Source listed as patent US20040071783A1.

Experiment: Particle size analysis using the Aerosizer/Aerodisperser system
Format: physicochemical
Conditions: particle size distribution, 40% under
Procedure: Particle size analysis of the product was carried out using the Aerosizer/Aerodisperser system (API, USA).
Here, each record is paired with measured SIZE, 40% UNDER data.

compound | SIZE, 40% UNDER (micron)
CC(C)Cc1ccc(C(C)C(=O)O)cc1 (stereo not shown) [Example 1a, ibuprofen] | 20.99
CC(C)Cc1ccc(C(C)C(=O)O)cc1 (stereo not shown) [Example 1c, ibuprofen] | 7.471
CC(C)Cc1ccc(C(C)C(=O)O)cc1 (stereo not shown) [Example 1b, ibuprofen] | 13.56
CC(C)Cc1ccc(C(C)C(=O)O)cc1 (stereo not shown) [Example 2, ibuprofen] | 13.38
